# System: TAB165
# assay.explanation: qHTS profiling for inhibitors of Plasmodium falciparum proliferation (AID 504749); also: nearly all actives have a fitted effect of over 60% in size
# experimental.context: P. falciparum in erythrocytes, SYBR Green DNA, 72 h; series mostly up to 28.7 µM
Results filed as inconclusive are left out. Active and inactive are the calls of the source. Calls follow the shape of the dose curve; as a rule, active = well fitted inhibition curve with a large enough effect; inconclusive = small, poorly fitted or top-dose-only effect; inactive = flat fitted curve, though single readings scatter.
Entry note: the call must match one of 1 (yes) (active), 0 (no) (inactive)

| compound | cat |
| --- | --- |
| C[C@@]12C(=O)OC(=O)[C@]1(C)[C@H]1CC[C@@H]2O1 | 1 (yes) |

IN: Check the results log: what was the call for Oc1ccc(/C=C\c2cc(O)cc(O)c2)cc1 ?
OUT: 0 (no)

IN: Check the results log: what was the call for CC(C)C[C@H]1C(=O)N2CCCC2[C@]2(O)O[C@](NC(=O)[C@@H]3C=C4c5cccc6[nH]c(Br)c(c56)C[C@H]4N(C)C3)(C(C)C)C(=O)N12 (stereo partly drawn) ?
OUT: 1 (yes)

IN: Check the results log: what was the call for C[C@@H]1[C@H](O)[C@@H](C)/C=C/C=C/C=C/C=C/C=C/C=C/C=C/[C@H](O[C@@H]2O[C@H](C)[C@@H](O)[C@H](N)[C@@H]2O)C[C@@H]2O[C@](O)(C[C@@H](O)C[C@@H](O)[C@H](O)CC[C@@H](O)C[C@@H](O)CC(=O)O[C@H]1C)C[C@H](O)[C@H]2C(=O)O ?
OUT: 0 (no)

----------
# System: 3D7
# assay.explanation: qHTS profiling for inhibitors of Plasmodium falciparum proliferation (AID 504749); also: nearly all actives have a fitted effect of over 60% in size
# experimental.context: P. falciparum in erythrocytes, SYBR Green DNA, 72 h; series mostly up to 28.7 µM
Records with an inconclusive call do not appear. Calls of active or inactive are those of the source. Calls come from the whole dose curve; as a rule, active = well fitted inhibition curve with a large enough effect; inconclusive = small, poorly fitted or top-dose-only effect; inactive = flat fitted curve, though single readings scatter.
Entry note: the call must match one of active, inactive

Example entries begin here.
| molecule | cat |
| --- | --- |
| CN1C(=O)CCC1c1cccnc1 (stereo unspecified) | inactive |
| C[C@@]12C(=O)OC(=O)[C@]1(C)[C@H]1CC[C@@H]2O1 | active |

IN: Check the results log: what was the call for Oc1ccc(/C=C\c2cc(O)cc(O)c2)cc1 ?
OUT: inactive

IN: Check the results log: what was the call for COc1cc2c(cc1OC)C(c1ccccc1)CN(C)CC2 (stereo unspecified) ?
OUT: inactive

IN: Check the results log: what was the call for C=C1/C(=C\C=C2/CCC[C@]3(C)[C@@H]([C@H](C)CCCC(C)(C)O)CC[C@@H]23)C[C@@H](O)C[C@@H]1O ?
OUT: inactive

IN: Check the results log: what was the call for COc1ccc(CCNC[C@@H](O)c2ccc(O)cc2)cc1OC ?
OUT: inactive

----------
# assay.explanation: qHTS assay to identify inhibitors of the type 1 interferon - major histocompatibility complex class I in skeletal muscle: Counter screen cell viability and HiBit confirmation (AID 1347412); also: % is scaled to controls: 0 for no effect and ±100 for the full control effect; nearly all actives have a fitted effect of over 60% in size
# experimental.context: iHSKM muscle cells + IFN-b, HiBiT or CellTiter-Glo, 24 h; Viability; at 45.9 µM (top of the series)
Records with an inconclusive call do not appear.
measurement.kind: activity change, negative = inhibition (%)
One number for each entry, in %.

Solved entries (count: 6):
| molecule | activity change, negative = inhibition / % |
| --- | --- |
| CC#CC(=O)N1CC[C@@H](n2c(=O)n(-c3ccc(Oc4ccccc4)cc3)c3c(N)ncnc32)C1 | -0.0272 |
| Cn1cc(-c2ccc(-c3cncc(Cl)c3N3CCC4(CCNC4=O)CC3)cc2)cn1 | -3.23 |
| Cc1cc(O)c(-c2ccc([C@@H](C)CN)cc2)c2c1[nH]c(=O)c1sccc12 | -14.1 |
| CC[C@@]1(O)C(=O)OCc2c1cc1n(c2=O)Cc2c-1nc1cc(F)c(C)c3c1c2[C@@H](N)CC3 | -10.9 |
| C[C@H](NC(=O)/C(C#N)=C/c1cccc(Br)n1)c1ccccc1 | 17 |
| CS[C@H]1SC[C@@H]2C(=O)N(C)[C@H](C(C)C)C(=O)OC[C@H](NC(=O)c3cnc4ccccc4n3)C(=O)N[C@H](C)C(=O)N(C)[C@H]1C(=O)N(C)[C@H](C(C)C)C(=O)OC[C@H](NC(=O)c1cnc3ccccc3n1)C(=O)N[C@H](C)C(=O)N2C | 4.37 |

Parameters: items (list). Returns: activity change, negative = inhibition for each item.
1. COc1cc(C(=O)O)ccc1NC(=O)[C@@H]1N[C@@H](CC(C)(C)C)[C@](C#N)(c2ccc(Cl)cc2F)[C@H]1c1cccc(Cl)c1F
2. COc1nnc2ccc(N3CCC(c4ccc(OCCN5CCN(C)C(=O)[C@H]5C)cc4)CC3)nn12

OUT:
[-6.71, 14.1]
